Test system: HOP-92
assay.protocol: NCI tumour cell line growth inhibition, 48 h
The source made the active and inactive calls. Cut-off read from the data, not from the text of the source: active = GI50 up to about 1.1 µM and inactive = higher.
Use one of these outcomes when replying: 1 (yes) = active, 0 (no) = inactive

Check out these entries, answers already filled in.
[
  {
    "compound": "Nc1ccc(S(=O)(=O)NCCS(=O)(=O)O)cc1",
    "category": "0 (no)"
  },
  {
    "compound": "Cc1cccc(N2C(=O)C3ON(C(C(N)=O)c4ccccc4)C(c4c5ccccc5c(Cl)c5ccccc45)C3C2=O)c1C (stereo unspecified)",
    "category": "0 (no)"
  },
  {
    "compound": "COc1cccc2nc3cc(C)c(C)cc3nc12",
    "category": "0 (no)"
  },
  {
    "compound": "O=C(C[N+]1(c2ccccc2)CCOCC1)c1ccccc1",
    "category": "0 (no)"
  },
  {
    "compound": "CSC1=N/C(=C\\c2cccs2)C(=O)N1CN1CCCCC1",
    "category": "0 (no)"
  },
  {
    "compound": "CC(C)(C)OC(=O)NCCC1CN(C(=O)c2ccccc2)c2ccccc21 (stereo unspecified)",
    "category": "0 (no)"
  }
]

q: Per the records of this test, what outcome belongs to O=c1c2c3c(sc2nc(S)n1-c1ccccc1)CCCc1ccc([N+](=O)[O-])cc1-3 ?
a: 0 (no)

q: Per the records of this test, what outcome belongs to CO[C@H]1[C@@H](O)[C@@H](C)O[C@@H](O[C@H]2CC[C@@]3(C)[C@H](CC[C@@H]4[C@@H]3CC[C@]3(C)[C@@H](C5=CC(=O)OC5)[C@@H](OC(C)=O)C[C@]43O)C2)[C@@H]1O [NERITALOSIDE] ?
a: 1 (yes)

q: Per the records of this test, what outcome belongs to CN(C)CCNC(=O)c1cccc2ccc(-c3cccnc3)nc12 ?
a: 0 (no)

q: Per the records of this test, what outcome belongs to C[N+](C)(C)CCCSc1nc2ccccc2[nH]1 ?
a: 0 (no)

q: Per the records of this test, what outcome belongs to CC1CC2CCCC(=O)C2=C(O)O1 (stereo unspecified) ?
a: 0 (no)
